- Tested on: miR-328
- Protocol Description: In vitro inhibition of miR-328 expression by antisense oligonucleotides transfected into ARPE-19 RPE cells (qRT-PCR, normalized to U6)
- Assay type: cell-based, human
- Test Parameters: 100 nM, RPE cells (ARPE-19), Lipofectamine 2000 transfection, 24 hours
l = locked nucleic acid (LNA); d = 2'-deoxy (DNA)
Readout Type: inhibitory effect on miR-328 expression (%)

{"columns": ["Substance", "Readout Type", "Value Reported"],
 "data": [
  ["5′-AAGGGCAGAGAGGGCCA-3′ (DNA, backbone not given here) [DNA 17mer, anti-sense miR-328 oligodeoxyribonucleotide]", "inhibitory effect on miR-328 expression", 48],
  ["5′-AGGGCAGAGAGGGCCA-3′ (DNA, backbone not given here) [DNA 16mer, anti-sense miR-328 oligodeoxyribonucleotide]", "inhibitory effect on miR-328 expression", 49],
  ["5′-+G*+G*+A*+A*G*G*G*C*A*G*A*G*A*G*G*+G*+C*+C*+A-3′ (antisense GGAAGGGCAGAGAGGGCCA; sugars from the 5' end l4 d11 l4, all phosphorothioate, methylation of C not given here) [LNA404, LNA-modified and PS bond-modified anti-sense miR-328 oligonucleotide, 19 mer]", "inhibitory effect on miR-328 expression", 99],
  ["5′-+C*+G*+G*+A*A*G*G*G*C*A*G*A*G*A*G*G*+G*+C*+C*+A-3′ (antisense CGGAAGGGCAGAGAGGGCCA; sugars from the 5' end l4 d12 l4, all phosphorothioate, methylation of C not given here) [LNA403, LNA-modified and PS bond-modified anti-sense miR-328 oligonucleotide, 20 mer]", "inhibitory effect on miR-328 expression", 90],
  ["5′-+G*+A*+A*+G*G*G*C*A*G*A*G*A*G*G*+G*+C*+C*+A-3′ (antisense GAAGGGCAGAGAGGGCCA; sugars from the 5' end l4 d10 l4, all phosphorothioate, methylation of C not given here) [LNA405, LNA-modified and PS bond-modified anti-sense miR-328 oligonucleotide, 18 mer]", "inhibitory effect on miR-328 expression", 99]
]}
